Reported EC50 (read off the curve) values for the following binders.
Biological target: T1, wild-type CNTFR-Fc (human, UniProt P26992 23-342)
T1 construct: also called wtCNTFR-Fc; not shown: Fc domain; captured with anti-mouse Fc antibody
T1 sequence: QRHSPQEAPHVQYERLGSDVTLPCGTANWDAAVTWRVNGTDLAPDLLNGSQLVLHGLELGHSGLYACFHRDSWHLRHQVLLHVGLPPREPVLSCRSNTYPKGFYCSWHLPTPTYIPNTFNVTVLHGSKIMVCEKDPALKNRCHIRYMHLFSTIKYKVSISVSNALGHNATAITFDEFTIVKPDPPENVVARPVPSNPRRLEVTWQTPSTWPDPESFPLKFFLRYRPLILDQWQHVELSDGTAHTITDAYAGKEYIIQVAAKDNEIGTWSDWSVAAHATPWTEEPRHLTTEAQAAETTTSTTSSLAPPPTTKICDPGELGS
Test: sandwich ELISA, soluble CLCF1 titrated against 2 nM CNTFR-Fc, anti-mouse-Fc capture, anti-CLCF1 detection

A selection of reference data follows.
[
  {
    "binder": "v2 (ligand) soluble CLCF1 variant: LNRTGDPGPGPSIQKTYDLTRYLEHQLRSLAGTYLNYLGPPFNEPDFNPPRLGAETLPRATVDLEVWRSLNDKLRLTQNYEAYSHFLCYLRGLNRRAATAELRRSLAHFCTSLQGLLGSIAGVMAALGYPLPQPLPGTEPTWTPGPAHSDFLQKMDDFWLLKELQTWLWRSAKDFNRLKKKMQPPAAAVTLHLGAHGF",
    "endpoint.value": "~2 nM"
  },
  {
    "binder": "v1 (ligand) soluble CLCF1 variant: LNRTGDPGPGPSIQKTYDLTRYLEHQLRSLAGTYLNYLGPPFNEPDFNPPRLGAETLPRATVDLEVWRSLNDKLRLTQNYEAYSHLLCYLRGLNRRAATAELRRSLAHFCTSLQGLLGSIAGVMAALGYPLPQPLPGTEPTWTPGPAHSDFLQKMDDFWLLKELQTWLWRSAKDFNRLKKKMQPPAAAVTLHLGAHGF",
    "endpoint.value": "~6 nM"
  },
  {
    "binder": "v3 (ligand) soluble CLCF1 variant: LNRTGDPGPGPSIQKTYDLTRYLEHQLRSLAGTYLNYLGPPFNEPDFNPPRLGAETLPRATVDLEVWRSLNDKLRLTQNYEAYSHLLCYLRGLNRRAATAELRRSLAHFCTSLQGLLGSIAGVMAALGYPLPQPLPGTEPTWTPGPARSDFLQKMDDFWLLKELQTWLWRSAKDFNRLKKKMQPPAAAVTLHLGAHGF",
    "endpoint.value": "~2 nM"
  }
]

// switching to the query binder
**Q:** What EC50 (read off the curve) value was documented for this binder, recombinant soluble FRR-CLCF1 (L86F, Q96R, H148R) (ligand, Expressed in E. coli from pET28b) LNRTGDPGPGPSIQKTYDLTRYLEHQLRSLAGTYLNYLGPPFNEPDFNPPRLGAETLPRATVDLEVWRSLNDKLRLTQNYEAYSHFLCYLRGLNRRAATAELRRSLAHFCTSLQGLLGSIAGVMAALGYPLPQPLPGTEPTWTPGPARSDFLQKMDDFWLLKELQTWLWRSAKDFNRLKKKMQPPAAAVTLHLGAHGF ?
**A:** ~1 nM
